Molecular target: Mitogen-activated protein kinase kinase kinase 5 (Homo sapiens) (UniProt Q99683)
Sequence (Q99683 whole entry, looked up): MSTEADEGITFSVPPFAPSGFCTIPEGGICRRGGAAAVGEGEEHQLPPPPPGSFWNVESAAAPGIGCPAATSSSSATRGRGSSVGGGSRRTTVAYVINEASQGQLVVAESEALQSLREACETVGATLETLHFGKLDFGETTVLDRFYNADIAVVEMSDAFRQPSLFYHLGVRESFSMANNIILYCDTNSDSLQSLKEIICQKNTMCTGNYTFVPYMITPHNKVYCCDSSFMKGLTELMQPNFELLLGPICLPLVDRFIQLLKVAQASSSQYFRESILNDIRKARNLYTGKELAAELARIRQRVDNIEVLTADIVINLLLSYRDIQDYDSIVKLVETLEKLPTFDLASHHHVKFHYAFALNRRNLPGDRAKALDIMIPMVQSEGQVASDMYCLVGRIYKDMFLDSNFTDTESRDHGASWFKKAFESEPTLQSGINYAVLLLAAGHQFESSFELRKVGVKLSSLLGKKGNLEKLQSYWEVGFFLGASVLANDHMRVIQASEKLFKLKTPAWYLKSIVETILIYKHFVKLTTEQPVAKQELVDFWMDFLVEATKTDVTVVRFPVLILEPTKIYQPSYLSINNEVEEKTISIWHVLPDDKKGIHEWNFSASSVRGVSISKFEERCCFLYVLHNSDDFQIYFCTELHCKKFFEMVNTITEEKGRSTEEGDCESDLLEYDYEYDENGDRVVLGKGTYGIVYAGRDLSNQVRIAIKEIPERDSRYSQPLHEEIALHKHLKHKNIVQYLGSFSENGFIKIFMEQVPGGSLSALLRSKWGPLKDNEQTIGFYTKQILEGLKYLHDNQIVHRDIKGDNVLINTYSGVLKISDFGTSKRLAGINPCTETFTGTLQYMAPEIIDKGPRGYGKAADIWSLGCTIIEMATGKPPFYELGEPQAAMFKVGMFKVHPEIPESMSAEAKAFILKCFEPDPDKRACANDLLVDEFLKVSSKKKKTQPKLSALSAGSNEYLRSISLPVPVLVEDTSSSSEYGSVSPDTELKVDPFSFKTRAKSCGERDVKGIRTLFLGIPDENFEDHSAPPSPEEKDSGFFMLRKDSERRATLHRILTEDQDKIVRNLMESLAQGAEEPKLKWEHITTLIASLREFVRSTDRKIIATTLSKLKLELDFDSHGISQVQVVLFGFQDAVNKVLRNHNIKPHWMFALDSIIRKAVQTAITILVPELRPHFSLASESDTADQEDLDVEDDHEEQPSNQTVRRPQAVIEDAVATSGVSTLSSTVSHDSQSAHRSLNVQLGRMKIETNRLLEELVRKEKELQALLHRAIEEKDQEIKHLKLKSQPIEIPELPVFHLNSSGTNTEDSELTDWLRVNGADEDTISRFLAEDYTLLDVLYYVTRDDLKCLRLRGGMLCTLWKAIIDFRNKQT
Assay: MAP3K5 inhibition concentration-response curves – biochemical, AlphaScreen, MKK6 phosphorylation, dose response (AID 1159605);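 also: ASK1 phosphorylation of MKK6 substrate detected with anti-phospho-MKK6 antibody beads; inhibitors lower the luminescent signal by blocking MKK6 phosphorylation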
Settings: ASK1 MKK6 phosphorylation, AlphaScreen luminescence
Calls of active or inactive are those of the source.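 The calls were made as follows: active = IC50 of 10 µM or lower; inactive = IC50 above 10 µM.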
Possible outcomes: active, inactive

Molecular String: NC(=O)c1ccc(-c2nc(NCc3cccc(C(F)(F)F)c3)c3ncn(Cc4ccc(C(F)(F)F)cc4)c3n2)cc1
Category: inactive
//
Molecular String: c1ccc(OCCNc2nc(Nc3ccc(-n4ccnc4)cc3)nc3c2ncn3C2CCCCC2)cc1
Category: inactive
//
Molecular String: CN(C)c1cccc(Nc2nc(NCCc3ccc(O)cc3)c3ncn(Cc4ccc(C(F)(F)F)cc4)c3n2)c1
Category: inactive
//
Molecular String: c1cc(Nc2ccc3c(c2)OCO3)nc(N2CCN(Cc3ccc4c(c3)OCO4)CC2)n1
Category: inactive
//
Molecular String: c1ccc(CN2CCC(Nc3nc(Nc4ccc(N5CCOCC5)cc4)nc4c3ncn4-c3ccsc3)CC2)cc1
Category: active
//
Molecular String: COc1ccc(CCNc2nc(Nc3ccc(N4CCOCC4)cc3)nc3cc(OC)c(OC)cc23)cc1
Category: inactive
//
Molecular String: COc1cc2nc(Nc3ccc(N4CCOCC4)cc3)nc(NCCOc3ccccc3)c2cc1OC
Category: inactive
//
Molecular String: CC(C)n1cnc2c(Nc3ccc4c(c3)OCO4)nc(Nc3cccc(N(C)C)c3)nc21
Category: inactive
//
Molecular String: COc1cc2nc(Nc3cccc(N(C)C)c3)nc(Nc3cc(OC)c(OC)c(OC)c3)c2cc1OC
Category: inactive

----------
Biological target: Mitogen-activated protein kinase kinase kinase 5 (Homo sapiens)
Test: MAP3K5 inhibition concentration-response curves – biochemical, AlphaScreen, MKK6 phosphorylation, dose response (AID 1159605);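 also: ASK1 phosphorylation of MKK6 substrate detected with anti-phospho-MKK6 antibody beads; inhibitors lower the luminescent signal by blocking MKK6 phosphorylation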
Conditions: ASK1 MKK6 phosphorylation, AlphaScreen luminescence
Calls of active or inactive are those of the source.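 The calls were made as follows: active = IC50 of 10 µM or lower; inactive = IC50 above 10 µM.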
Possible outcomes: y (active), n (inactive)

Compound: c1cc(-n2cnc3c(Nc4ccc5c(c4)OCO5)nc(N4CCN(Cc5ccc6c(c5)OCO6)CC4)nc32)cs1
Category: n
//
Compound: Cc1nc(C)n(-c2ccc(Nc3nccc(-c4cc(F)cc(-c5ncco5)c4)n3)cc2)n1
Category: n
//
Compound: COc1cc(Nc2ccnc(Nc3cccc(N(C)C)c3)n2)cc(OC)c1OC
Category: y
//
Compound: c1ccc(CCn2ncc(-c3ccnc(Nc4ccc(N5CCOCC5)cc4)c3)c2Nc2ccccc2)cc1
Category: n
//
Compound: CN(C)c1cccc(Nc2nc(NCCc3ccc(O)cc3)c3ncn(-c4ccccc4)c3n2)c1
Category: n
//
Compound: O=C(Cc1cn(-c2ccc(N3CCN(Cc4ccc5c(c4)OCO5)CC3)nn2)c2ccccc12)Nc1ccc(N2CCOCC2)cc1
Category: n
//
Compound: c1ccc(CN2CCC(Nc3nc(Nc4ccc(N5CCOCC5)cc4)nc4c3ncn4C3CCCCC3)CC2)cc1
Category: y
//
Compound: Cc1nc(C)n(-c2ccc(Nc3nccc(-c4cccc(-n5cncn5)c4)n3)cc2)n1
Category: n
//
Compound: c1cncc(CNc2nc(Nc3ccc(N4CCOCC4)cc3)nc3c2ncn3C2CCCCC2)c1
Category: n
//
Compound: O=C(NCCN1CCOCC1)c1cccc(-n2ncc3cc(Nc4c(F)cccc4[N+](=O)[O-])ccc32)c1
Category: n
//
Compound: c1ccc(CN2CCC(Nc3nc(N4CCN(Cc5ccc6c(c5)OCO6)CC4)nc4c3ncn4C3CCCCC3)CC2)cc1
Category: n
//
Compound: Cc1[nH]ncc1-c1ccc2nc(NC(=O)C3COc4ccc(F)cc4C3)sc2c1 (configuration not stated)
Category: n
//
Compound: Cc1nc(C)n(-c2ccc(Nc3nccc(-c4cc(F)cc(-c5cn[nH]c5C)c4)n3)cc2)n1
Category: n
//
Compound: COc1cc2nc(Nc3cccc(N(C)C)c3)nc(Nc3ccccc3)c2cc1OC
Category: n
//
Compound: c1ccc(CN2CCC(Nc3ccnc(Nc4ccc(N5CCOCC5)cc4)n3)CC2)cc1
Category: n
//
Compound: CC(C)n1cnc2c(Nc3ccc4c(c3)OCO4)nc(Nc3ccc(N4CCOCC4)cc3)nc21
Category: n
//
Compound: COc1cc2nc(Nc3nccc4ccccc34)nc(Nc3ccc(N4CCOCC4)cc3)c2cc1OC
Category: n
//
Compound: CC(C)n1cnc2c(NCc3cccc(C(F)(F)F)c3)nc(N3CCN(Cc4ccc5c(c4)OCO5)CC3)nc21
Category: y
//
Compound: c1ccc(Oc2ccc(Nc3nc(N4CCc5ccccc5C4)nc4c3ncn4-c3ccccc3)cc2)cc1
Category: n
//
Compound: Cc1cc(Nc2ccc(N3CCOCC3)cc2)nc(Nc2ccccc2)n1
Category: n
//
Compound: Nc1nc(Nc2ccc(N3CCOCC3)cc2)cc(-c2ccc3[nH]ccc3c2)n1
Category: y
//
Compound: COc1cc(Nc2nc(N3CCc4ccccc4C3)nc3c2ncn3C(C)C)cc(OC)c1OC
Category: n
//
Compound: CCCNc1nc(Nc2ccc(N3CCOCC3)cc2)nc2c1ncn2C1CCCCC1
Category: n
//
Compound: FC(F)(F)c1cccc(CNc2ccnc(Nc3ccc(N4CCOCC4)cc3)n2)c1
Category: n
//
Compound: FC(F)(F)c1cccc(CNc2nc(N3CCN(c4ccccn4)CC3)nc3c2ncn3-c2ccsc2)c1
Category: n
//
Compound: CC(C)n1cnc2c(Nc3ccc(N4CCOCC4)cc3)nc(Nc3ccc(-n4ccnc4)cc3)nc21
Category: n
//
Compound: COc1cc(Nc2nc(-c3c(C)noc3C)nc3c2ncn3Cc2ccc(C(F)(F)F)cc2)cc(OC)c1OC
Category: n
//
Compound: Cc1cc(NCCc2ccc(O)cc2)nc(N2CCN(Cc3ccc4c(c3)OCO4)CC2)n1
Category: n
//
Compound: CC(C)n1cnc2c(NCc3cccc(C(F)(F)F)c3)nc(Nc3ccc(N4CCOCC4)cc3)nc21
Category: y
//
Compound: FC(F)(F)c1cccc(CNc2nc(N3CCN(Cc4ccc5c(c4)OCO5)CC3)nc3c2ncn3-c2ccccc2)c1
Category: n
//
Compound: COc1cc2nc(Nc3cccc(N(C)C)c3)nc(Nc3ccc(NC(C)=O)cc3)c2cc1OC
Category: y
//
Compound: Cc1nc(C)n(-c2ccc(Nc3nccc(-c4cccc(-n5nccn5)c4)n3)cc2)n1
Category: n

----------
Biological target: Mitogen-activated protein kinase kinase kinase 5 (Homo sapiens) (UniProt Q99683)
Test: MAP3K5 inhibition concentration-response curves – biochemical, AlphaScreen, MKK6 phosphorylation, dose response (AID 1159605);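 also: ASK1 phosphorylation of MKK6 substrate detected with anti-phospho-MKK6 antibody beads; inhibitors lower the luminescent signal by blocking MKK6 phosphorylation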
Details: ASK1 MKK6 phosphorylation, AlphaScreen luminescence
The source made the active and inactive calls.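 How the source made its calls: active means IC50 of 10 µM or lower; inactive means IC50 above 10 µM.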
Possible outcomes: label 1 (active), label 0 (inactive)

Molecular String: COc1cc2nc(Nc3cccc(N(C)C)c3)nc(NC3CC3)c2cc1OC
Category: label 0

Molecular String: COc1cc(Nc2nc(-c3ccc(C(N)=O)cc3)ncc2C)cc(OC)c1OC
Category: label 0

Molecular String: COc1ccc(CCNc2nc(Nc3ccc(N4CCOCC4)cc3)nc3c2ncn3-c2ccccc2)cc1
Category: label 1

Molecular String: Fc1cnc(Nc2ccc(N3CCNCC3)cc2)cc1-n1cnc(Nc2ccccc2)n1
Category: label 0

Molecular String: COc1cc(Nc2nc(Nc3ccc(N4CCOCC4)cc3)c3ncn(Cc4ccc(C(F)(F)F)cc4)c3n2)cc(OC)c1OC
Category: label 0

Molecular String: COc1cc2nc(Nc3cccc(N(C)C)c3)nc(NCCOc3ccccc3)c2cc1OC
Category: label 0

Molecular String: NC(=O)c1cc2ccccc2cc1Nc1ccnc(Nc2ccc(N3CCOCC3)cc2)c1
Category: label 0

----------
Molecular target: Mitogen-activated protein kinase kinase kinase 5 (Homo sapiens)
Test: MAP3K5 inhibition concentration-response curves – biochemical, AlphaScreen, MKK6 phosphorylation, dose response (AID 1159605);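 also: ASK1 phosphorylation of MKK6 substrate detected with anti-phospho-MKK6 antibody beads; inhibitors lower the luminescent signal by blocking MKK6 phosphorylation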
Conditions: ASK1 MKK6 phosphorylation, AlphaScreen luminescence
Activity calls are given as the source filed them.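 The calls were made as follows: active = IC50 of 10 µM or lower; inactive = IC50 above 10 µM.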
Quantity Kind: IC50

Molecular String: CN(C)c1cccc(Nc2ccc(-n3cc(CC(=O)Nc4ccc5c(c4)OCO5)c4ccccc43)nn2)c1
Result: > 19 µM (inactive)
//
Molecular String: Cc1cccc(Nc2ccc3c(cnn3-c3cccc(C(=O)NCCN4CCNCC4)c3)c2)c1Cl
Result: > 19.2 µM (inactive)
